Target: T1, human Angiopoietin-2 (human, UniProt O15123 19-496)
T1 construct: Mostly bought recombinant protein (R&D Systems 623-AM/CF, 623-AN; biotinylated BT623) or supernatant of transfected 293F cells; also called Ang-2; rhAng-2
T1 sequence: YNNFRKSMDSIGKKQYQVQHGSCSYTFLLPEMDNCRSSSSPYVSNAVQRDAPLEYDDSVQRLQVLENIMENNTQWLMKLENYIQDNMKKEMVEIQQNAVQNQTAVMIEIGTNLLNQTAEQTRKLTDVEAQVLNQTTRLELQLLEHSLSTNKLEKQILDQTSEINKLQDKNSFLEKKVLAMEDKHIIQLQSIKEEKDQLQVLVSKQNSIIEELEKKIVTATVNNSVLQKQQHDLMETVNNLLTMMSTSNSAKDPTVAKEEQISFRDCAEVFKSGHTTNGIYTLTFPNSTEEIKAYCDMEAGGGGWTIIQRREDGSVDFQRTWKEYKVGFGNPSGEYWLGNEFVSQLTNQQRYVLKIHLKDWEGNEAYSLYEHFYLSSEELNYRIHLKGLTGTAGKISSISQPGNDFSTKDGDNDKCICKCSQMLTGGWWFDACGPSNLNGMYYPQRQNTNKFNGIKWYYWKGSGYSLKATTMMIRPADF
Assay: inhibition of rhAng-2 binding to its receptor; further: test concentration or dose not given here
Please respond with reported OD650 in inhibition assay for every item in the list.
Answers are plain numbers, in OD650.

// worked examples, OD650 in inhibition assay included
mAb 3.31.2 (antibody, V domains shown, Human hybridoma IgG (XenoMouse); also called x3.31) VH: EVQLVESGGGLVQPGGSLRLSCAASGFTFSSYWMSWVRQAPGKGLEWVANIKQDGSDKYYVDSVKGRFTISRDNAKNSLYLRMNSLRAEDTAVFYCARDMGSGWFDYWGQGTLVTVSS VL: EVVMTQSPATLSVSPGERATLSCRASQSVGSNLAWYQQKPGQAPRLLIYGASTRATGIPARFSGSGSGTEFTLTISSLQSEDFAVYCCQQYNHWWTFGQGTKVEIKR ... 0.0516
mAb 5.35.1 (antibody, V domains shown, Human hybridoma IgG (XenoMouse); also called x5.35) VH: EVQLVESGGGVVRPGGSLRLSCTTSGFTFDDYGMSWVRQAPGKGLEWVSGINWNGGSTVYADSVKGRFTISRDSAKNSLYLQMNSLRAEDTALYHCARNKQWLWYFDLWGRGTLVTVSS VL: EIVMTQSPATLSVSPGERATLSCRASQSVSSNLAWYQQKPGQAPRLLIYGASTRATGIPARFSGSGSGTEFTLTISSLQSEDFAVYYCEQYNNWPLTFGGGTKVEIKR ... 0.0663

Task item: Reported OD650 in inhibition assay for mAb 5.28.1 (antibody, V domains shown, Human hybridoma IgG (XenoMouse); also called x5.28) VH: EVQLVESGGIVVQPGGSLRLSCAASGFTFDDYTMHWVRQTPGKGLEWVSLISWDGGSTYYADSVKGRFTISRDNSKNSLYLQMNSLRTEDTALYYCAKDIDIAVAGTGFDHWGQGTLVTVSS VL: EIVMTQSPATLSVSPGERATLSCRASQSVTSNLAWYQQKPGQAPRLLIYGALIRATGIPARFSGSGSGTEFTLTISSLQSEDFAVYYCQQYNNWPFTFGPGTKVDIKR : what is it?
Reply: 0.0821
